# Test system: MCF7
# Assay: Cytotoxicity against MCF7 cells after 48 hrs
# Assay type: cell-based
# Conditions used: Homo sapiens, MCF7, 48 h
Observed property: IC50 (µM)
Number only, in µM; omit the unit.

Given C[C@H]1CCCCC(CCCC(Cl)Cl)c2c(O)cc(cc2O)[C@H](OC(N)=O)[C@@H](C)CCCCC(CCCC(Cl)Cl)c2c(O)cc(cc2O)[C@@H]1OC(N)=O (stereo partly drawn) , respond with its IC50.
0.86

Assign IC50 to the following record: C[C@H]1CCCCC(CCCCCl)c2c(O)cc(cc2O)[C@H](OC(N)=O)[C@@H](C)CCCCC(CCCC(Cl)Cl)c2c(O)cc(cc2O)[C@@H]1OC(N)=O (stereo partly drawn)
1.8

Please indicate IC50 recorded for CCCCC1CCCC[C@H](C)[C@@H](OC(N)=O)c2cc(O)c(c(O)c2)C(CCCC(Cl)Cl)CCCC[C@H](C)[C@@H](OC(N)=O)c2cc(O)c1c(O)c2 (stereo partly drawn)
2.2
